Origin of measurements: patent US20250042994A1

For each entry below, report its pEC50 value.
Molecular target: T1, monkey CD19 on HEK293T-monkey CD19 cells (monkey)
T1 construct: whole, on cells
Assay: FACS on HEK293T-monkey CD19 cells
Numbers only, as −log10 of the molar value.

| binder | pEC50 |
| --- | --- |
| F2.15.26 (antibody, human IgG1, V domains shown, human-murine chimeric antibody, human IgG1) VH: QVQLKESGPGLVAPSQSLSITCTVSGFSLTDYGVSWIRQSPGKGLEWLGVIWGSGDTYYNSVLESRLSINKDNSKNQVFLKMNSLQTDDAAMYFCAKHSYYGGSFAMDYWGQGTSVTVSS VL: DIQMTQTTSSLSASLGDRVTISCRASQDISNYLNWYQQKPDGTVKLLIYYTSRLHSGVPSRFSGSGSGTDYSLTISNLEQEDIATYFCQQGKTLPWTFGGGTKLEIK | 7.78 |
| F3.133.14 (antibody, human IgG1, V domains shown, human-murine chimeric antibody, human IgG1) VH: QVQLQQPGAELVMPGASVKLSCKASGYTFTNYWMHWVKQRPGQGLEWIGEIDPSDYYANYNQKFKGKATLTVDKSSSTAYMQLSSLTSEDSAVYYCARSHYYANSYNYWGQGTTLTVSS VL: EIELTQSPTTMAASPGEKITITCSASSSISSDYLHWYQQKPGFSPKLLIYRTSNLASGLPARFSGSGSGTSYSLTIGTMEAEDVATYYCQQGSSVPRMLTFGAGTKLELK | 8.61 |

Proceed to the following item.
Bench note: what pEC50 did F3.64.4 (antibody, human IgG1, V domains shown, human-murine chimeric antibody, human IgG1) VH: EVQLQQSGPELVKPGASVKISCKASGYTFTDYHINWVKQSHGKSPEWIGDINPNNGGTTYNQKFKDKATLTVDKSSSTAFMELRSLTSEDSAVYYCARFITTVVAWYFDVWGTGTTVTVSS VL: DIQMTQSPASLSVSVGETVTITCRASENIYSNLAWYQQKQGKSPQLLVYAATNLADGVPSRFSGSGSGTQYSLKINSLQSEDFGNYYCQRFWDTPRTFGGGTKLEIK show?
8.40
